assay: NCI Yeast Anticancer Drug Screen. Data for the cln2 rad14 strain (AID 165);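 note: 0% = growth equal to vehicle treated cultures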; conditions: S. cerevisiae cln2 rad14 strain, at 5.0 µM (retest, dose inferred, filed as 0.5), hits give high values
This is part of a sample that, as a whole, favours compounds with a hit. Of some 79,000 tested, about 15% had one in any assay.
Below, each of the compounds is paired with its reported growth inhibition value.
Express your answer in %, writing the number without its unit.

Worked cases, answers included:
compound: COc1ccc(C(=O)Nc2ccc(O)c(=O)cc2)cc1
value_measured: 14
//
compound: CSC(=S)NNC(C)c1nccc2ccccc12 (stereo unspecified)
value_measured: -8
//
compound: O=C1CCSC(=S)N1c1ccc(N=Nc2ccccc2)cc1
value_measured: 11

Kindly review the next compound as well.
# query: growth inhibition of entry `N#Cc1ccc([N+](=O)[O-])o1` 8
